Values from patent US11285103B2

experiment: Determination of half life in PBS (cleavage of biodegradable linkers from model peptides); format: physicochemical; details: linker X on N terminus of model peptide X-[…]; 1 mg/mL in PBS, 37° C.; read-out: t1/2 (h), cleavage of biodegradable linker (converted)
Assay Endpoint: half-life at 1 mg/mL (h)

* CC1NCc2cc(CN)ccc2C1=O (stereo not shown) | 264
